Source of measurements: patent US20170334899A1

- Tested on: human cervical tumor cell line HeLa (ATCC CCL-2)
- assay-info: SAC-Formation - Nocodazole-Induced Assay
- Format: cell-based
- run-parameters: Homo sapiens, HeLa, 24 h, HeLa cells, nocodazole 0.1 μg/ml together with test compound, decrease of mitotic cells (phospho-histone H3 Ser10)
Measured IC50 of individual entries

{"columns": ["compound", "IC50 [nM]"],
 "data": [
  ["Cc1nsc(Nc2cnc(C(F)(F)F)cn2)c1C(=O)Nc1ccc(OC2CCN(CCF)CC2)nc1 [Example 7]", 600],
  ["Cc1nsc(Nc2cnc(C(F)(F)F)cn2)c1C(=O)Nc1ccc(OCCCN(C)CC(F)(F)F)nc1 [Example 354]", 110],
  ["CCN(C)C(=O)c1cccc(NC(=O)c2c(C)nsc2Nc2cnc3ccccc3n2)c1 [Example 67]", 16],
  ["Cc1nsc(Nc2ccc(C#N)cn2)c1C(=O)Nc1ccc(NC2CCCN(C(=O)OC(C)(C)C)C2)nc1 (stereo not shown) [Example 171]", 71],
  ["Cc1nsc(Nc2cnc(C(F)(F)F)cn2)c1C(=O)Nc1ccc(O[C@H]2CCN(CC(F)(F)F)C[C@@H]2F)nc1 [Example 363]", 110],
  ["Cc1nsc(Nc2cnc3ccccc3n2)c1C(=O)Nc1ccc(N2CCOCC2)nc1 [Example 169]", 2500],
  ["CC(=O)Nc1cc(NC(=O)c2c(C)nsc2Nc2ccc(C#N)cn2)ccc1F [Example 152]", 8400],
  ["Cc1nsc(Nc2cnc(C(F)(F)F)cn2)c1C(=O)Nc1ccc(O[C@H]2CCN(CCC(F)(F)F)C2)nc1 [Example 384]", 62],
  ["Cc1nsc(Nc2cnc3ccccc3n2)c1C(=O)Nc1ccc(NC2CCN(C(=O)OC(C)(C)C)CC2)nc1 [Example 234]", 1000],
  ["Cc1nsc(Nc2cnc(C(F)(F)F)cn2)c1C(=O)Nc1ccc(OCCCN(C)CC(F)F)nc1 [Example 353]", 96],
  ["CC(=O)N(C)CCOc1ccc(NC(=O)c2c(C)nsc2Nc2nc3c(C(F)(F)F)cccc3s2)cn1 [Example 112]", 230],
  ["Cc1nsc(Nc2cnc3ccccc3n2)c1C(=O)Nc1cccc(C(=O)N2CCN(C(=O)N(C)C)CC2)c1 [Example 89]", 2900],
  ["Cc1nsc(Nc2cnc(C(F)(F)F)cn2)c1C(=O)Nc1ccc(O[C@@H]2CCN(CC(F)F)C2)nc1 [Example 379]", 34],
  ["CC(=O)Nc1ccc(NC(=O)c2c(C)nsc2Nc2ccc(C#N)cn2)cn1 [Example 435]", 12000],
  ["Cc1nsc(Nc2cnc(C(F)(F)F)cn2)c1C(=O)Nc1ccc(CCC2CCN(CC(F)F)CC2)nc1 [Example 356]", 50],
  ["Cc1nsc(Nc2cnc(C(F)(F)F)cn2)c1C(=O)Nc1ccc(OCCN2CCC(F)(F)CC2)nc1 [Example 407]", 39]
]}

* * *

- System: human cervical tumor cell line HeLa (ATCC CCL-2)
- assay-info: SAC-Formation - Nocodazole-Induced Assay
- Format: cell-based
- run-parameters: Homo sapiens, HeLa, 24 h, HeLa cells, nocodazole 0.1 μg/ml together with test compound, decrease of mitotic cells (phospho-histone H3 Ser10)
parameter-measured: IC50 (µM)

{"columns": ["molecule", "parameter-measured", "data-value"],
 "data": [
  ["Cc1nsc(Nc2cnc(C(F)(F)F)cn2)c1C(=O)Nc1cccc(S(C)(=O)=O)c1", "IC50", 0.66],
  ["Cc1nsc(Nc2ccc(C#N)cn2)c1C(=O)Nc1ccc(OC2CCNCC2)nc1", "IC50", 11],
  ["Cc1nsc(Nc2cnc(C(F)(F)F)cn2)c1C(=O)Nc1ccc(OCC2CCN(CCC(F)(F)F)CC2)nc1", "IC50", 0.04],
  ["Cc1nsc(Nc2cnccn2)c1C(=O)Nc1ccc(OCCCNC(=O)OC(C)(C)C)nc1", "IC50", 3.6],
  ["Cc1nsc(Nc2cnc(C(F)(F)F)cn2)c1C(=O)Nc1ccc(C(=O)NCCN2CCCC(F)C2)cc1 (stereo not shown)", "IC50", 2.7],
  ["Cc1nsc(Nc2cnc(C(F)(F)F)cn2)c1C(=O)Nc1ccc(O[C@@H]2CCN(CC(F)F)C[C@@H]2F)nc1", "IC50", 0.034],
  ["Cc1nsc(Nc2cnc(C(F)(F)F)cn2)c1C(=O)Nc1ccc(O[C@@H]2CCN(CCC(F)(F)F)C[C@@H]2F)nc1", "IC50", 0.016]
]}

* * *

- target-or-system: CDK2/CycE (Homo sapiens, UniProt P24941)
- Construct: GST
- assay-info: CDK2/CycE kinase assay (TR-FRET)
- run-parameters: avg, read-out: CDK2 avg (IC50 [mol/l])
Measured IC50 of individual entries
parameter-measured: IC50

{"columns": ["compound", "parameter-measured", "data-value"],
 "data": [
  ["Cc1nsc(Nc2cncc(C(F)(F)F)n2)c1C(=O)Nc1ccc(OC2CCN(C)CC2)nc1 [Example 219]", "IC50", "> 20 µM"],
  ["Cc1nsc(Nc2cnc(C(F)(F)F)cn2)c1C(=O)Nc1ccc(OC[C@H]2CCN(CC(F)F)C2)nc1 [Example 132]", "IC50", "> 20 µM"],
  ["Cc1nsc(Nc2cnc(C(F)(F)F)cn2)c1C(=O)Nc1ccc(O[C@H]2CCCN(CC(F)(F)F)C2)nc1 [Example 389]", "IC50", "> 20 µM"],
  ["Cc1nsc(Nc2cnc3ccccc3n2)c1C(=O)Nc1ccc(Nc2ccc(F)c(F)c2)nc1 [Example 245]", "IC50", "12 µM"],
  ["Cc1nsc(Nc2cc(C#N)ccn2)c1C(=O)Nc1ccc(OC2CCNCC2)nc1 [Example 24]", "IC50", "≥ 20 µM"],
  ["Cc1nsc(Nc2cncc(C(F)(F)F)n2)c1C(=O)Nc1ccc(OC2CCNCC2)nc1 [Example 13]", "IC50", "≥ 20 µM"],
  ["Cc1nsc(Nc2cnc(C(F)(F)F)cn2)c1C(=O)Nc1ccc(OC2CCN(CC(F)F)CC2)nc1 [Example 8]", "IC50", "≥ 20 µM"],
  ["Cc1nsc(Nc2cnc3ccccc3n2)c1C(=O)Nc1ccc(C(=O)OC(C)(C)C)cc1 [Example 181]", "IC50", "> 20 µM"],
  ["Cc1nsc(Nc2cnc3ccccc3n2)c1C(=O)Nc1ccc(F)c(C(N)=O)c1 [Example 202]", "IC50", "> 20 µM"],
  ["Cc1nsc(Nc2cncc(C(F)(F)F)n2)c1C(=O)Nc1ccc(C(=O)NC2CCN(C(=O)OC(C)(C)C)CC2)cc1 [Example 222]", "IC50", "> 20 µM"],
  ["COC(=O)CCc1cccc(NC(=O)c2c(C)nsc2Nc2cnc3ccccc3n2)c1 [Example 257]", "IC50", "> 20 µM"],
  ["CCN1CCN(C(=O)c2ccc(NC(=O)c3c(C)nsc3Nc3cncc(C(F)(F)F)n3)cc2)CC1 [Example 275]", "IC50", "8.4 µM"],
  ["Cc1nsc(Nc2cnc(C(F)(F)F)cn2)c1C(=O)Nc1ccc(F)c(O[C@@H]2CCN(CCC(F)(F)F)C2)c1 [Example 414]", "IC50", "> 20 µM"],
  ["Cc1nsc(Nc2cnc(C(F)(F)F)cn2)c1C(=O)Nc1ccc(F)c(OCC2CCN(C(CF)CF)C2)c1 (stereo not drawn) [Example 320]", "IC50", "≥ 20 µM"],
  ["Cc1nsc(Nc2cnc(C(F)(F)F)cn2)c1C(=O)Nc1ccc(O[C@H]2CCN(CCC(F)(F)F)C2)nc1 [Example 384]", "IC50", "> 20 µM"],
  ["Cc1nsc(Nc2cnc(C(F)(F)F)cn2)c1C(=O)Nc1ccc(OC2CCN(CCF)C2)nc1 (stereo not drawn) [Example 295]", "IC50", "> 20 µM"],
  ["Cc1nsc(Nc2cnc(C(F)(F)F)cn2)c1C(=O)Nc1ccc(CCC2CCN(CCC(F)(F)F)CC2)nc1 [Example 420]", "IC50", "> 20 µM"],
  ["Cc1nsc(Nc2cc(C#N)ccn2)c1C(=O)Nc1ccc(OCCCNCC(F)F)nc1 [Example 45]", "IC50", "≥ 20 µM"],
  ["Cc1nsc(Nc2cnc(C(F)(F)F)cn2)c1C(=O)Nc1ccc(C(=O)N2CCN(CC(F)(F)F)CC2)cc1 [Example 260]", "IC50", "> 20 µM"],
  ["Cc1nsc(Nc2cc(C#N)ccn2)c1C(=O)Nc1ccc(OC2CCN(CC(F)(F)F)CC2)nc1 [Example 25]", "IC50", "≥ 20 µM"],
  ["Cc1nsc(Nc2cnc3ccccc3n2)c1C(=O)Nc1ccc(N2CCN(C(=O)OC(C)(C)C)CC2)nc1 [Example 248]", "IC50", "> 20 µM"],
  ["Cc1nsc(Nc2cncc(C(F)(F)F)n2)c1C(=O)Nc1ccc(OCC2CCN(C(=O)OC(C)(C)C)C2)nc1 (stereo not drawn) [Example 110]", "IC50", "≥ 20 µM"],
  ["Cc1nsc(Nc2ccc(C#N)cn2)c1C(=O)Nc1ccc(OC2CCN(CC(F)(F)F)CC2)nc1 [Example 30]", "IC50", "≥ 20 µM"],
  ["Cc1nsc(Nc2cncc(C(F)(F)F)n2)c1C(=O)Nc1ccc(C(=O)N2CCN(CCF)CC2)cc1 [Example 274]", "IC50", "5.4 µM"],
  ["Cc1nsc(Nc2cc(C#N)ccn2)c1C(=O)Nc1ccc(OC2CCN(C(=O)OC(C)(C)C)CC2)nc1 [Example 23]", "IC50", "≥ 20 µM"],
  ["Cc1nsc(Nc2cnc(C(F)(F)F)cn2)c1C(=O)Nc1ccc(O[C@H]2CCN(CC(F)F)C[C@@H]2F)nc1 [Example 362]", "IC50", "> 20 µM"],
  ["Cc1nsc(Nc2cnc3ccccc3n2)c1C(=O)Nc1cccc(NC(=O)C(F)(F)F)c1 [Example 432]", "IC50", "> 20 µM"],
  ["Cc1nsc(Nc2cnc(C(F)(F)F)cn2)c1C(=O)Nc1ccc(OCC2CCCN(CCF)C2)nc1 (stereo not drawn) [Example 325]", "IC50", "≥ 20 µM"],
  ["Cc1nsc(Nc2ccc(C#N)cn2)c1C(=O)Nc1cccc(N)c1 [Example 180]", "IC50", "> 20 µM"],
  ["Cc1nsc(Nc2cncc(C(F)(F)F)n2)c1C(=O)Nc1ccc(F)c(OC2CCN(C(=O)OC(C)(C)C)CC2)c1 [Example 168]", "IC50", "> 20 µM"]
]}
